Taken from ChEMBL document CHEMBL1201862.

System: 786-0
Test: NCI tumour cell line growth inhibition, 48 h
The source made the active and inactive calls. No stated cut-off is given here; in the data, active = GI50 up to about 1.1 µM and inactive = higher.
Give your call using only these classes: active, inactive

Prompt: # fetch the recorded call for Cc1ccc(C(O)(c2ccc(C)cc2)c2ccccn2)cc1 here
Response: inactive

Prompt: Would you kindly repeat that for COc1cc(N)c2[nH]c3c(C)ccc(C)c3c2c1 ?
Response: inactive

Prompt: Would you kindly repeat that for COc1ccc(C2C3CCc4ccccc4C3=NN2S(=O)(=O)c2cccc(C(=O)O)c2OC)cc1 (stereo unspecified) ?
Response: inactive

Prompt: Would you kindly repeat that for O=C(O)CCC1C(=O)C2CCN1CC2 (stereo unspecified) ?
Response: inactive

Prompt: Would you kindly repeat that for C=C(C)C1Cc2c(cc(OC)c3c(=O)c4cccc(O)c4oc23)O1 (stereo unspecified) ?
Response: inactive

Prompt: Would you kindly repeat that for CC1=NC(=Cc2ccc(Cl)cc2)C(=O)N1n1c(-c2ccccc2)nc2ccccc2c1=O ?
Response: inactive

Prompt: Would you kindly repeat that for Nc1ccc(Oc2ccc(C3(c4ccc(Oc5ccc(N)c(O)c5)cc4)C4CC5CC(C4)CC3C5)cc2)cc1O ?
Response: inactive

Prompt: Would you kindly repeat that for COC(=O)N/N=C(\C)CC(=O)Nc1cccc([N+](=O)[O-])c1 ?
Response: inactive

Prompt: Would you kindly repeat that for COCCN(C(=O)c1ccccc1)C1CCC(=O)c2[nH]c3ccccc3c21 (stereo unspecified) ?
Response: inactive

Prompt: Would you kindly repeat that for O=C1CC(CC(=O)c2ccc(Br)cc2)C(O)=C1C(=O)c1ccc(Br)cc1 (stereo unspecified) ?
Response: inactive

Prompt: Would you kindly repeat that for O=C1Nc2ccccc2/C1=N/NC(=S)N1CCCCC1 ?
Response: active
